Collected set of pKi measured with Adenosine receptor A2a (Homo sapiens) across studies.
pKi: −log10 of the molar value.

1) Cc1ccc(Nc2nc(-c3ccc(C)cc3)c(C(=O)Nc3sc4c(c3C(N)=O)CCCC4)s2)cc1	< 5.00
2) COCCOc1ccc(N2CCN(C(=O)c3cc(N)c4nc(-c5ccc(OC)c(OC)c5)cn4c3)CC2)cc1	< 5.00
3) Cl.Cn1cc2c(nc(NC(=O)NC3CCN(CC4CCCCC4)CC3)n3nc(-c4ccco4)nc23)n1	< 5.30
4) CC(=O)COc1cccc2cc(-c3ccc(C)cc3)c(=O)oc12	< 4.00
5) Oc1c2nnnc-2nc2n1CCS2	< 5.00

Then there is this compound:
Q) Provide measured pKi value, entry: "c1ccc(-c2cn3cc(-c4ccco4)ccc3n2)cc1"
A) < 5.00

====

Below are Ki measurements against Adenosine receptor A2a (Homo sapiens, UniProt P29274) drawn from the literature.
Sequence (P29274 whole entry): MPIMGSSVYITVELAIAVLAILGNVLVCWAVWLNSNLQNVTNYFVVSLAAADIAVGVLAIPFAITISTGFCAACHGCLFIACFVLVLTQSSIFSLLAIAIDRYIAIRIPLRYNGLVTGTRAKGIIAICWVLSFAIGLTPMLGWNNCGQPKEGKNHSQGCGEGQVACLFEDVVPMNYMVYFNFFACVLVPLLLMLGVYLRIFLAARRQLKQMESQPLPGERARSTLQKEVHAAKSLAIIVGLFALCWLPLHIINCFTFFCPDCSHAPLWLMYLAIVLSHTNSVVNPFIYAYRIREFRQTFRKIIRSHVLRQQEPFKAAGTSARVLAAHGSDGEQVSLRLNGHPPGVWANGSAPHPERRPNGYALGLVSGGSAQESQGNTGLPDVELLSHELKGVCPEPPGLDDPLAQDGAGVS

1) O=C(O)c1cnc(NC(c2ccccc2)c2ccccc2)n2nc(-c3ccco3)nc12	> 100 µM
2) Cn1ncc2nc(N3CCOCC3)n3nc(-c4ccco4)nc3c21	> 1 µM

Here's the next entry for you.
Q) Lab note: Adenosine receptor A2a (Homo sapiens, UniProt P29274) assay, enter Ki for "Cn1cc(Nc2ncc(-c3ccncn3)c(-c3ccco3)n2)ccc1=O" here
A) > 2.5 µM

====

Adenosine receptor A2a (Homo sapiens, UniProt P29274) Ki, compiled from various sources.

Example compounds with recorded Ki:
1) CC(C)CC(=O)Nc1ccc(C(=O)Nc2nccs2)cc1	59 nM
2) Cn1cc2c(nc(N=C(Nc3ccc(Br)cc3)Nc3ccc(Br)cc3)n3nc(-c4ccco4)nc23)n1	> 1000 nM

# ---- query compound ----
Q) For the compound CCNC(=O)[C@H]1OC(n2cnc3c(NC(=O)Nc4ccc(S(=O)(=O)N5CCOCC5)cc4)ncnc32)C(O)C1O (single isomer, unassigned) , report Ki.
A) > 1000 nM

====

Ki for Adenosine receptor A2a (Homo sapiens) - collated from the literature.

1) CCNC(=O)[C@H]1O[C@@H](n2cnc3c(NNC(=O)c4cc(C)on4)nc(Cl)nc32)[C@H](O)[C@@H]1O	> 5 µM
2) CC(=O)Oc1ccc(-c2cc3ccc(OC(C)=O)c(OC(C)=O)c3oc2=O)cc1	> 100 µM
3) CCCn1c(=O)c2[nH]c(-c3cnn(Cc4cc(-c5ccc(OC)cc5)on4)c3)nc2n(CCC)c1=O	> 5 µM

Continue with the compound presented below.
Q) # assay system Adenosine receptor A2a (Homo sapiens): give Ki of "C=CCN1C(=O)N2C[C@H](C)N=C2c2[nH]c(-c3cc(C)nn3C)nc21"
A) > 5 µM

====

Across several studies, compounds have been characterized by their Ki on UniProt:P29274; a selection follows.

1. CC(C)NC(=Nc1nc2nn(C)cc2c2nc(-c3ccco3)nn12)NC(C)C	> 1 µM
2. CCCn1c(=O)c2c(nc3n(CC)c(C)cn23)n(Cc2ccccc2)c1=O	> 1 µM
3. CSCC/C=N/Nc1nc(N)c2ncn([C@@H]3O[C@H](CO)[C@@H](O)[C@H]3O)c2n1	> 10 µM

Next item in the queue.
Q) State its Ki for this compound: "Clc1cccc2nc(-c3cnc4ccccc4n3)[nH]c12"
A) > 10 µM

====

The following compounds were reported with pKi values on Adenosine receptor A2a (Homo sapiens, UniProt P29274) in different studies.
pKi: −log10 of the molar value.

Field: example entries. Status: answers known.
1) CN(C(=O)/C=C/c1ccccc1)c1cn(C)c(=O)n(C)c1=O	< 6.00
2) Cc1cn2c(nc3c2c(=O)n(CCCO)c(=O)n3Cc2ccccc2)[nH]1	< 6.00
3) COc1ccc(CNC(=O)N2CCC(NC(=O)Nc3nc4nn(C)cc4c4nc(-c5ccco5)nn34)CC2)cc1	< 5.30

Q) Under Adenosine receptor A2a (Homo sapiens, UniProt P29274): report pKi of "O=C(Nc1nc(-c2ccccc2)c(-c2nc3ccccc3c(=O)n2-c2ccc(Cl)cc2)s1)c1ccco1" .
A) < 6.00
